Assay: Pharmacokinetic parameters following intravenous administration in rats
Type: in vivo, male Wistar rats
Conditions: male, Wistar, rat, plasma, intravenous administration
QUANTITY: MRT (h)
Hi! Could you send only the number? It should be in h, unit omitted.

Query: MRT; subject: O=C(O)c1cnn(C2CCCN(c3cc(Cl)ccc3-c3ccc(N4CCN(CC(F)F)CC4)cc3)C2)c1C(F)F (single isomer, unassigned; enantiomer 2)
5.66

---

Examples of compounds with documented AUCnorm follow.
Test: Pharmacokinetic parameters following oral administration in rats
Type: in vivo, male Wistar rats
Hi! Could you send only the number? It should be in kg·h/L, unit omitted.

compound="O=C(O)c1cnn(C2CCCN(c3cc(Cl)ccc3-c3ccc(N4CCN(CC(F)(F)F)CC4)cc3)C2)c1C(F)F (single isomer, unassigned; enantiomer 1) [Example 20]" endpoint_value=2.11

Query: AUCnorm; subject: O=C(O)c1cnn(-c2cccc(-c3cc(Cl)ccc3-c3ccc(N4CCN(CC5CC5)CC4)cc3)n2)c1C(F)(F)F [174 (WO2012/058132), reference compound]
0.63

Query: AUCnorm; subject: CCCN1CCN(c2ccc(-c3ccc(Cl)cc3N3CCCC(n4ncc(C(=O)O)c4C(F)F)C3)cc2)CC1 (single isomer, unassigned; enantiomer 2) [Example 5]
0.84

Query: AUCnorm; subject: O=C(O)c1cnn(C2CCCN(c3cc(Cl)ccc3-c3ccc(N4CCN(CC5CC5)CC4)cc3)C2)c1C(F)F (single isomer, unassigned; enantiomer 2) [Example 11]
0.70

Query: AUCnorm; subject: O=C(O)c1cnn(C2CCCN(c3cc(Cl)ccc3-c3ccc(N4CCN(CC(F)(F)F)CC4)cc3)C2)c1C(F)F (single isomer, unassigned; enantiomer 2) [Example 21]
4.04

Query: AUCnorm; subject: O=C(O)c1cnn(C2CCCN(c3cc(Cl)ccc3-c3ccc(N4CCN(CC(F)F)CC4)cc3)C2)c1C(F)F (single isomer, unassigned; enantiomer 2) [Example 19]
0.25

---

Assay: Pharmacokinetic parameters following intravenous administration in rats
Format: in vivo, male Wistar rats
Settings: intravenous administration
hey, just use 1 if measured AUCnorm is less than 2 kg·h/L, otherwise -1

Some entries whose results are on file:
compound="CCCN1CCN(c2ccc(-c3ccc(Cl)cc3N3CCCC(n4ncc(C(=O)O)c4C(F)F)C3)cc2)CC1 (single isomer, unassigned; enantiomer 2)" label_value=1
compound="O=C(O)c1cnn(C2CCCN(c3cc(Cl)ccc3-c3ccc(N4CCN(CC(F)(F)F)CC4)cc3)C2)c1C(F)F (single isomer, unassigned; enantiomer 1) [Example 20]" label_value=-1
compound="O=C(O)c1cnn(-c2cccc(-c3cc(Cl)ccc3-c3ccc(N4CCN(CC5CC5)CC4)cc3)n2)c1C(F)(F)F [174 (WO2012/058132), reference compound]" label_value=1
compound="O=C(O)c1cnn(C2CCCN(c3cc(Cl)ccc3-c3ccc(N4CCN(CC(F)F)CC4)cc3)C2)c1C(F)F (single isomer, unassigned; enantiomer 2)" label_value=-1
compound="O=C(O)c1cnn(C2CCCN(c3cc(Cl)ccc3-c3ccc(N4CCN(CC5CC5)CC4)cc3)C2)c1C(F)F (single isomer, unassigned; enantiomer 2)" label_value=1

For this compound, is AUCnorm lower than 2 kg·h/L? O=C(O)c1cnn(C2CCCN(c3cc(Cl)ccc3-c3ccc(N4CCN(CC(F)(F)F)CC4)cc3)C2)c1C(F)F (single isomer, unassigned; enantiomer 2) [Example 21]
-1

Data provenance: patent US20240101528A1
